# Tested Target: Jarid1A (Homo sapiens, UniProt P29375)
# Construct: purchased BPS Bioscience 50110
# Sequence (P29375 1-1090): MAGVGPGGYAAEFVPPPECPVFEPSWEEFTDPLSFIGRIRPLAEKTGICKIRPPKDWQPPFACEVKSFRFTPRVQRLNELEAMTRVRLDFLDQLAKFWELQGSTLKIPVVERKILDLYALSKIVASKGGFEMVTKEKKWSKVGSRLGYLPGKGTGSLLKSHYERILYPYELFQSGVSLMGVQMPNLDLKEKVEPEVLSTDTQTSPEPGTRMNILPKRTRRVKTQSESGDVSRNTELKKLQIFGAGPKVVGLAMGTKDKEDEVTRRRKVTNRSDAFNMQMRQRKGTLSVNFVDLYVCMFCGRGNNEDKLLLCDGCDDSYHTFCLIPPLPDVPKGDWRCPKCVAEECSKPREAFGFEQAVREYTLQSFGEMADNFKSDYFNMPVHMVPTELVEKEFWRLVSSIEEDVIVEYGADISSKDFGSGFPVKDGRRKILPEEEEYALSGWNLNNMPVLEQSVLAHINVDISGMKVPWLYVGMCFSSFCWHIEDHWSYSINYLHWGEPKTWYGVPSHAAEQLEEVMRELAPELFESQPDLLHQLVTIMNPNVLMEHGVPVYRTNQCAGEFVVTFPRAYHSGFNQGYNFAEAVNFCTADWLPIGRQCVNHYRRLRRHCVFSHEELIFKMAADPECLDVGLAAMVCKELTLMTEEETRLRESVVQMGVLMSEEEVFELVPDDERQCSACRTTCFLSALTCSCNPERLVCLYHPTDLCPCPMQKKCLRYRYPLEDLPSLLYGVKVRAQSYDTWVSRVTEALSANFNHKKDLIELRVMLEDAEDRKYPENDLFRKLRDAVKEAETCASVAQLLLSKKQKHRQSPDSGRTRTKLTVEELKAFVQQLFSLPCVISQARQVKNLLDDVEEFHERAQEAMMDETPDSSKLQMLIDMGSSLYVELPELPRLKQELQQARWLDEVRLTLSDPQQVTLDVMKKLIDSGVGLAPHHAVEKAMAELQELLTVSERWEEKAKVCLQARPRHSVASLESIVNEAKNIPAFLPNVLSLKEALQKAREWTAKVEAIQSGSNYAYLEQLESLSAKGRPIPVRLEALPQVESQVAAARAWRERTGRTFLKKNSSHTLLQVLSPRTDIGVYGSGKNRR
# Test Summary: Jarid1A in vitro enzyme inhibition assay (TR-FRET)
# Format: biochemical
# Measurement Setup: 1 nM Jarid1A, 300 nM H3K4me3-biotin peptide, 2 μM alpha-ketoglutaric acid
Structures can show the parent of a compound that is named as a salt.
Property Label: IC50

O=C(O)c1ccncc1Nc1nn(Cc2ccccc2)c2ccc(F)cc12 [Example 24] ... < 0.1 µM
CNCCCCCn1nc(Nc2cnccc2C(=O)O)c2cc(F)ccc21 [Example 46, trifluoroacetic acid salt] ... < 0.1 µM
Cn1nc2ccccc2c1Nc1cnccc1C(=O)O [Example 2] ... 1 to 10 µM
CN(C)CC#CCn1nc(Nc2cnccc2C(=O)O)c2cc(F)ccc21 [Example 49, trifluoroacetic acid salt] ... < 0.1 µM

Here is the next item to consider.
*Q* Return IC50 (reported value) for this compound: O=C(O)c1ccncc1Nc1nn(C2CCC(F)(F)CC2)c2ccc(F)cc12 [Example 64]
*A* 1 to 10 µM

----------
# Tested Target: UniProt Q9H3R0
# Sequence (Q9H3R0 2-372): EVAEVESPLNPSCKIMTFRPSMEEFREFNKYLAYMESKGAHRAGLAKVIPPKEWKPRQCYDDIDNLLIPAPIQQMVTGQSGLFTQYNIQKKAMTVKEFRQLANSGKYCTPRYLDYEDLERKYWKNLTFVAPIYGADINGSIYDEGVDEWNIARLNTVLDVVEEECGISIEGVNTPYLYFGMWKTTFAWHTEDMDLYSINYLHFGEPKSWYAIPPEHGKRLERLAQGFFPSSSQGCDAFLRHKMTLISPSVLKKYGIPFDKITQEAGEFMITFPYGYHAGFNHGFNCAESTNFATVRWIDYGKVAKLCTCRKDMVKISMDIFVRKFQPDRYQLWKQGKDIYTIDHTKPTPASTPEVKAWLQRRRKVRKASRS
pIC50: −log10 of the molar value.
// values below are reported pIC50

Cn1nc(Nc2cnccc2C(=O)O)c2cc(Cl)ccc21 [Example 4] ... 6.00 to 7.00
CCCn1nc(Nc2cnccc2C(=O)O)c2cc(Cl)ccc21 [Example 33] ... 6.00 to 7.00
Cn1cc(Nc2cnccc2C(=O)O)c2cccnc21 [Example 52] ... 6.00 to 7.00
O=C(O)c1ccncc1Nc1nn(CCc2ccccc2)c2ccc(F)cc12 [Example 19] ... 6.00 to 7.00
O=C(O)c1ccncc1Nc1nn(CCC(F)(F)F)c2ccc(Cl)cc12 [Example 35] ... 6.00 to 7.00
CN(C)CCCCn1nc(Nc2cnccc2C(=O)NC#N)c2cc(F)ccc21 [Example 76] ... 6.00 to 7.00
Cn1nc2ccccc2c1Nc1cnccc1C(=O)O [Example 2] ... 6.00 to 7.00
O=C(O)c1ccncc1Nc1cn(CCC(F)(F)F)c2ccc(Cl)cc12 [Example 59] ... 6.00 to 7.00
COCCn1nc(Nc2cnccc2C(=O)O)c2ccccc21 [Example 10] ... 6.00 to 7.00

// next item, pIC50 requested
*Q* Return pIC50 for the following compound: CCC(C)n1nc(Nc2cnccc2C(=O)O)c2cc(F)ccc21 (stereo not shown) [Example 26]
*A* 6.00 to 7.00

----------
# Tested Target: Jarid1A (Homo sapiens)
# Construct: purchased BPS Bioscience 50110
# Sequence (P29375 1-1090): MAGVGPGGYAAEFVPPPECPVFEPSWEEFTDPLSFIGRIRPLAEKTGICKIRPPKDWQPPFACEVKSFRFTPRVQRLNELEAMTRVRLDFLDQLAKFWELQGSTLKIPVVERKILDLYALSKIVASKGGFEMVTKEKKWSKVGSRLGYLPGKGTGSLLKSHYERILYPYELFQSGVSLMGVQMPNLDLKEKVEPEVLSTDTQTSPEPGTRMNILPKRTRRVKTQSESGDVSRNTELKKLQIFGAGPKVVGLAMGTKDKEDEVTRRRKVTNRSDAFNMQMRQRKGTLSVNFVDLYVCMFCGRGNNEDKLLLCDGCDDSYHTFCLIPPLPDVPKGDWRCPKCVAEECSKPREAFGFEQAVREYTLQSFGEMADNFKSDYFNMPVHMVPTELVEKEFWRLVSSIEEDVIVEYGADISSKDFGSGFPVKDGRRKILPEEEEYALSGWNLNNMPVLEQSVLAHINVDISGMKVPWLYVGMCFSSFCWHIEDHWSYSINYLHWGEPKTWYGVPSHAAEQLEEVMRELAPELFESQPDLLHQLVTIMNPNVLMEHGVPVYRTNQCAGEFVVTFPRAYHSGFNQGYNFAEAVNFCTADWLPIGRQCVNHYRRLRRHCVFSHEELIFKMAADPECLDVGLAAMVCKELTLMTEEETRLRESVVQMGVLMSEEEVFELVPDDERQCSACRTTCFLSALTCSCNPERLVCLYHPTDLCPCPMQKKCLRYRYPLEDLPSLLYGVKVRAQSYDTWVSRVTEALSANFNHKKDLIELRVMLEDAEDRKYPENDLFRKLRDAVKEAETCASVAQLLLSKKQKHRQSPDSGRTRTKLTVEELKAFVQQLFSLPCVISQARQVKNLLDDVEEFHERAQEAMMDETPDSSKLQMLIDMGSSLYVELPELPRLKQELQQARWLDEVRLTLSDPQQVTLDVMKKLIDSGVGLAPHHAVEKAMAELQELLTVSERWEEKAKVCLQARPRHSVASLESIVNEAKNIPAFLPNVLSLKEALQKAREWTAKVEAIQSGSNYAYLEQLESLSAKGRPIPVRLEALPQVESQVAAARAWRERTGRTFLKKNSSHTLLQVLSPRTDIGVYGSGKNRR
# Test Summary: Jarid1A in vitro enzyme inhibition assay (TR-FRET)
# Type: biochemical
Property Label: IC50

*Q* Using known records, supply IC50 for CN(C)CCCCCn1nc(Nc2cnccc2C(=O)O)c2cc(F)ccc21 [Example 22]
*A* < 0.1 µM

----------
# Tested Target: Jarid1B (Homo sapiens)
# Sequence (Q9UGL1 2-751): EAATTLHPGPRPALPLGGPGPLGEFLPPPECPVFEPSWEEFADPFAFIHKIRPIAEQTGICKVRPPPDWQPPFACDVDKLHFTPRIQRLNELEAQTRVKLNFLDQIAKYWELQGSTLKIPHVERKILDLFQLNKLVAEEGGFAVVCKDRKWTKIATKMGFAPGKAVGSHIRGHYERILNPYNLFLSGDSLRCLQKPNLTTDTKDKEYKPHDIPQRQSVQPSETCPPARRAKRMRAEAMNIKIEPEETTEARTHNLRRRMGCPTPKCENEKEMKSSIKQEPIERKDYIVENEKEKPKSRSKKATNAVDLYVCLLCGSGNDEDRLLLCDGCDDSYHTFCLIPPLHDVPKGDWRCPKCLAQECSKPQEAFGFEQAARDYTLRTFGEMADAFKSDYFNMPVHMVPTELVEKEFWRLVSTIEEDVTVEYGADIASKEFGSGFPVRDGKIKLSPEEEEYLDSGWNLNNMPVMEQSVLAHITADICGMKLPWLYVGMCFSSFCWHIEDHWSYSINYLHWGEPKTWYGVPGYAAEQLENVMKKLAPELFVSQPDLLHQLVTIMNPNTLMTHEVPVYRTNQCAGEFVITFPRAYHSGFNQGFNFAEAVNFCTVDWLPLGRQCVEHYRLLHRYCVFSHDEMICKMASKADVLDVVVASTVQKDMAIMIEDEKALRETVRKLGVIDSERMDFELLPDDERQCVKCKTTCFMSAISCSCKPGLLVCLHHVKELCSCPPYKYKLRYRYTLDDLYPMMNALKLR
Measured IC50 of individual entries

*Q* Report value only: IC50, Jarid1B (Homo sapiens), Cn1nc2ccccc2c1Nc1cnccc1C(=O)O [Example 2]
*A* 1000 to 10000 nM

*Q* State recorded IC50 with Jarid1B (Homo sapiens), entry CN(C)CCCCCn1nc(Nc2cnccc2C(=O)O)c2cc(F)ccc21 [Example 22] , no comment.
*A* < 100 nM

----------
compounds and their reported pIC50
# Tested Target: JMJD2C (Homo sapiens)
pIC50: −log10 of the molar value.

Worked set:
O=C(O)c1ccncc1Nc1nn(C2CCC(F)(F)CC2)c2ccc(F)cc12 ... 5.00 to 6.00
Cc1ccc2c(c1)c(Nc1cnccc1C(=O)O)nn2CC1CC1 ... 6.00 to 7.00
N#CNC(=O)c1ccncc1Nc1nn(CCN2CCCC2)c2ccc(Cl)cc12 ... 6.00 to 7.00
CCCn1nc(Nc2cnccc2C(=O)O)c2ccccc21 ... 6.00 to 7.00
CC(C)Cn1nc(Nc2cnccc2C(=O)O)c2cc(F)ccc21 ... 6.00 to 7.00

Turning now to a further compound:
*Q* Give the value of pIC50 reported for the following: CC(C)Cn1nc(Nc2cnccc2C(=O)NC#N)c2cc(F)ccc21
*A* 5.00 to 6.00

Hello, the source for this data is patent US8969343B2, in case you need it.
